This collection of values is drawn from patent US11993581B2.

I'd be grateful if you could share measured pIC50 for these entries.
- tested-system: UniProtKB Q9Y5Y9
- assay-overview: Nav1.8 inhibition, estimated IC50 (Nav1.8 fluorescence, PatchXpress and/or IonFlux HT automated patch clamp assay)
- particulars: HEK293 cells stably expressing hNav1.8; determined using one or more of the described methods; read-out: Activity range (estimated IC50)
pIC50: −log10 of the molar value.

O=C(NCc1cccnc1N1CCOCC1)c1cnnc(-c2cccc(Cl)c2)c1    6.00 to 6.30

I need pIC50 for every entry listed below, if you could help.
1. COc1ncccc1CNC(=O)c1cnnc(-c2ccc(OCC3CC3)cc2)c1
2. O=C(NCc1cccnc1N1CC2(COC2)C1)c1cnnc(-c2ccc(OCC3CC3)cc2)c1
3. O=C(NCc1cccnc1N1CCCOCC1)c1cnnc(-c2ccc(OCC3CC3)c(Cl)c2)c1
4. O=C(NCc1cccnc1N1CCOCC1)c1cnnc(-c2ccc(OCC3CC3)c(C(F)(F)F)c2)c1
5. Cc1ccccc1CNC(=O)c1cnnc(-c2ccc(OCC3CC3)c(Cl)c2)c1
6. [2H]C1([2H])OC([2H])([2H])C([2H])([2H])N(c2ncccc2CNC(=O)c2cnnc(-c3ccc(OCC4CC4)c(Cl)c3)c2)C1([2H])[2H]
7. CC(C)Oc1ccc(-c2cc(C(=O)NCc3cccnc3N3CCOCC3)cnn2)cc1F

A.
1. < 6.00
2. < 6.00
3. > 6.30
4. > 6.30
5. > 6.30
6. > 6.30
7. > 6.30

###

- tested-system: human Nav1.8 (hNav1.8) ion channel (Homo sapiens, UniProt Q9Y5Y9)
- Sequence (Q9Y5Y9 whole entry): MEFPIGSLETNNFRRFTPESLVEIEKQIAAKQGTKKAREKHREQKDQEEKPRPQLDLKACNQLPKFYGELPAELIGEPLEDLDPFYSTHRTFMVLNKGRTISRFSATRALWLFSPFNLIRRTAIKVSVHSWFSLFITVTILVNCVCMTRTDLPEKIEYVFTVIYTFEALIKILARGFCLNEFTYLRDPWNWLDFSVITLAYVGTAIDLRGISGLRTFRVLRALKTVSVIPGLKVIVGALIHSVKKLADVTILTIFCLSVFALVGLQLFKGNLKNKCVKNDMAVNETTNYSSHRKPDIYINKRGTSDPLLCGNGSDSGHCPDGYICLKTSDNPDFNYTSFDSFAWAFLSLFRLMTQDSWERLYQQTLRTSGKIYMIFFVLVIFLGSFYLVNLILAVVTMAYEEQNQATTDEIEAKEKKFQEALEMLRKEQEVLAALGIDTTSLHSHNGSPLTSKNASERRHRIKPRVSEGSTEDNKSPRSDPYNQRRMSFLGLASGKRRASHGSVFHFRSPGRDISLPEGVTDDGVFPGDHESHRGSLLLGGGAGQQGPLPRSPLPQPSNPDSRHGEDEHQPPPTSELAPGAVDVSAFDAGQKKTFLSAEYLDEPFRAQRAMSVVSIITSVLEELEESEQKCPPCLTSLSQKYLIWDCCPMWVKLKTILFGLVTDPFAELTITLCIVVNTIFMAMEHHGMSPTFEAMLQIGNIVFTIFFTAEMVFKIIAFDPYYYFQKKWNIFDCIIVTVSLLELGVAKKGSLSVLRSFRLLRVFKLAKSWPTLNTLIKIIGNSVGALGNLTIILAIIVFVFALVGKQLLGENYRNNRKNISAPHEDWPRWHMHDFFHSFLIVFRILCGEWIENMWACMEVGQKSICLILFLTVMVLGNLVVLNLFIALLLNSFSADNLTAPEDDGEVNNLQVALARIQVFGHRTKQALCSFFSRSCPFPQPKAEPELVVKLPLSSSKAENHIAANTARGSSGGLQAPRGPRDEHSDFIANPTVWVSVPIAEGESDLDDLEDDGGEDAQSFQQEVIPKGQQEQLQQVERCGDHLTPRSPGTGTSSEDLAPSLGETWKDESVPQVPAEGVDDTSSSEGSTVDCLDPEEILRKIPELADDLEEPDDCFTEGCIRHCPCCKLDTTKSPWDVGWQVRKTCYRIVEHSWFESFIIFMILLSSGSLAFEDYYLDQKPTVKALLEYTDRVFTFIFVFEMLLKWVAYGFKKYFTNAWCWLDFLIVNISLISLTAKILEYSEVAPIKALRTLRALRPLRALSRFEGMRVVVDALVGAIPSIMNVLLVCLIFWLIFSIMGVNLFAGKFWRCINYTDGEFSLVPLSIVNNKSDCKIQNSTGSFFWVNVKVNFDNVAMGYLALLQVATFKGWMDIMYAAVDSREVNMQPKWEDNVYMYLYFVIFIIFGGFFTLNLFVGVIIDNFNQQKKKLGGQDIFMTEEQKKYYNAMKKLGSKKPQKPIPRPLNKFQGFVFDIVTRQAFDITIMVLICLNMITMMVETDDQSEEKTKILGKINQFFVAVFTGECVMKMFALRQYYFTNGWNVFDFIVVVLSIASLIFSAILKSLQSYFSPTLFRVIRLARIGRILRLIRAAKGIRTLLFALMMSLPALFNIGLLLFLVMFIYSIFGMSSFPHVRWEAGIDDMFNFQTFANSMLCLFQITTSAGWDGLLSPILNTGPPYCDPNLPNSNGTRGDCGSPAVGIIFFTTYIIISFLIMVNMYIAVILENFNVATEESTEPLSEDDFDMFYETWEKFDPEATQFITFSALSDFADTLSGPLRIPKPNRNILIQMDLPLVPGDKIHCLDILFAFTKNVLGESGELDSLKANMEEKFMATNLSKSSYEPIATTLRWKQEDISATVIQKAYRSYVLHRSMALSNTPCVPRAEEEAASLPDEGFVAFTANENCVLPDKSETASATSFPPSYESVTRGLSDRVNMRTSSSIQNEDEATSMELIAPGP
- Sequence (Q07699 19-218 partner): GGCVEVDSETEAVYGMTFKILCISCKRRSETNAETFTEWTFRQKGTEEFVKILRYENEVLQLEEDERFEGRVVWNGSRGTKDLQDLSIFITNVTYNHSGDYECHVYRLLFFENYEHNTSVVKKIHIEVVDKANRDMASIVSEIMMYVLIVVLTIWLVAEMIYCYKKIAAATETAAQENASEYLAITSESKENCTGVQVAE
- assay-overview: Nav1.8 inhibition, estimated IC50 (Nav1.8 fluorescence, PatchXpress and/or IonFlux HT automated patch clamp assay)
- particulars: HEK293 cells stably expressing hNav1.8; determined using one or more of the described methods; read-out: Activity range (estimated IC50)
result-type: IC50

Would you please look over these solved cases?
CN(C)c1ncccc1CNC(=O)c1cnnc(-c2ccc(OCC3CC3)c(Cl)c2)c1 [Example 28]    < 500 nM
CC(C)COc1ccc(-c2cc(C(=O)NCc3cccnc3N3CCOCC3)cnn2)cc1 [Example 5]    < 500 nM
O=C(NCc1cccnc1N1CCCC1)c1cnnc(-c2ccc(OCC3CC3)c(Cl)c2)c1 [Example 29]    < 500 nM
O=C(NCc1cncnc1N1CCOCC1)c1cnnc(-c2ccc(OCC3CC3)c(Cl)c2)c1 [Example 32]    > 1000 nM
O=C(NCc1cccnc1OCC(F)(F)F)c1cnnc(-c2ccc(OCC3CC3)c(Cl)c2)c1 [Example 20]    < 500 nM
O=C(NCc1ccccc1N1CCOCC1)c1cnnc(-c2ccc(Cl)cc2)c1 [Example 55]    < 500 nM
CC1COCCN1c1ncccc1CNC(=O)c1cnnc(-c2ccc(OCC3CC3)c(Cl)c2)c1 (stereo not drawn) [Example 23]    < 500 nM
CC(C)Oc1ncccc1CNC(=O)c1cnnc(-c2ccc(OCC3CC3)c(Cl)c2)c1 [Example 42]    < 500 nM

I need IC50 for every entry listed below, if you could help.
1. Cc1ccc(CNC(=O)c2cnnc(-c3ccc(OCC4CC4)c(Cl)c3)c2)c(N2CCOCC2)n1 [Example 24]
2. O=C(NCc1cccnc1N1CCOCC1)c1cnnc(-c2ccc(OCC3CC3)cc2)c1 [Example 8]
3. Cc1cc(Cl)ccc1-c1cc(C(=O)NCc2cccnc2N2CCOCC2)cnn1 [Example 4]
4. N#Cc1ccc(-c2cc(C(=O)NCc3ccccc3N3CCOCC3)cnn2)cc1 [Example 58]
5. COc1ncccc1C(C)NC(=O)c1cnnc(-c2ccc(OCC3CC3)c(Cl)c2)c1 (stereo not drawn) [Example 43]
6. O=C(NCc1cccnc1N1CCOCC1)c1cnnc(-c2ccc(OCC(F)(F)F)cc2)c1 [Example 7]
7. CCC1CN(c2ncccc2CNC(=O)c2cnnc(-c3ccc(OCC4CC4)c(Cl)c3)c2)CCO1 (stereo not drawn) [Example 41]

A.
1. < 500 nM
2. < 500 nM
3. < 500 nM
4. < 500 nM
5. 500 to 1000 nM
6. < 500 nM
7. < 500 nM

I need IC50 for every entry listed below, if you could help.
1. Cc1ccnc(N2CCOCC2)c1CNC(=O)c1cnnc(-c2ccc(Cl)cc2)c1 [Example 60]
2. O=C(NCc1cccnc1N1CCOCC1)c1cnnc(-c2ccc(Cl)nc2)c1 [Example 2]
3. O=C(NCc1cccnc1N1CCOCC1)c1cnnc(-c2ccc(OC3CC3)cc2)c1 [Example 15]

A.
1: < 500 nM; 2: > 1000 nM; 3: < 500 nM
